# target-system: p120gamma (Homo sapiens, UniProt P48736)
# Sequence (P48736 whole entry): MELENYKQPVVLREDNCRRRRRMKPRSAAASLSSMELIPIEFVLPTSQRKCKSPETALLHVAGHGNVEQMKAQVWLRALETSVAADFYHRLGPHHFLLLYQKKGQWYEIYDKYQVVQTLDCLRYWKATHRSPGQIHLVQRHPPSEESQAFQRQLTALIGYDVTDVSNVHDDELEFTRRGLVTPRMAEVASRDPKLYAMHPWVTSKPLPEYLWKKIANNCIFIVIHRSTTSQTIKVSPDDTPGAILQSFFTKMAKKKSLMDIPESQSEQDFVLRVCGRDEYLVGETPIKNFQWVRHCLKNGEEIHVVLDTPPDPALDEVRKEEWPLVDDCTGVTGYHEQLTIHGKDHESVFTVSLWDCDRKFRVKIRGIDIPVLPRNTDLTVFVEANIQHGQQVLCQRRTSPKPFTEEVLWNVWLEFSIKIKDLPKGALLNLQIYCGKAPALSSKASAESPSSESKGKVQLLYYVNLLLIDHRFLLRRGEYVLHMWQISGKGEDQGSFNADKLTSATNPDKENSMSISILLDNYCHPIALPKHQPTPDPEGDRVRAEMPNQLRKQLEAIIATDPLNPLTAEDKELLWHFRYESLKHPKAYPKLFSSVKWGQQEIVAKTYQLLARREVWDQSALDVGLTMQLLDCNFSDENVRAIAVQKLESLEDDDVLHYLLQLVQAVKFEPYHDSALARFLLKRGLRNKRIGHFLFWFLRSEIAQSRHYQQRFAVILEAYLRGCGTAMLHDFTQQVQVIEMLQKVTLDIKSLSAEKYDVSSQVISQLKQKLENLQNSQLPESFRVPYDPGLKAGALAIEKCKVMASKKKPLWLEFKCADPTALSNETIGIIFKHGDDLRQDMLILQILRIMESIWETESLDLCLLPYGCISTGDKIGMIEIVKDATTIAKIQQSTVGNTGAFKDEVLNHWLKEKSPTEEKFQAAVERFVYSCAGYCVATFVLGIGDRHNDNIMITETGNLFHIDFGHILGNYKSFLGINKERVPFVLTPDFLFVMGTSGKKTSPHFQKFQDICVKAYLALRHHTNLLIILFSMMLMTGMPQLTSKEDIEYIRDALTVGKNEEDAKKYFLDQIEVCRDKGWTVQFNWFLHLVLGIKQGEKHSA
# assay-protocol: PI3K kinase assay (ADP-Glo), p120gamma
# Assay type: biochemical
# measurement-context: Exp. 1; final ATP 25 μM; read-out: IC50 p120gamma Exp. 1
# Description: Summary of PI3K Kinase Assay 1. Prepare 1.25× enzyme/substrate: mix equal volume of 2.5× enzyme (in 2.5× reaction buffer) and 2.5× substrate (final 0.05 mg/ml) (in 2.5× lipid dilution buffer); 2. Add 4 μl of 1.25× enzyme/substrate mixture to 384-well low volume white plate; 3. Add 0.1 μl of increasing concentrations of compound diluted in DMSO; 4. Incubate at r.t. for 30 min; 5. Dispense 1 μl of 250 μM ATP diluted in ddH2O. […] 11. Read luminescence signal using Envision multilabel plate reader. […]
measurement-kind: log10 IC50 (log10 of the value in nM)
Each number you see is log10 of IC50, and the unit inside the log is nM.

See these solved cases before continuing.
O=S(=O)(Nc1cncc(-c2ccc3ncc(-c4cnc5ccnn5c4)n3c2)c1)c1ccccc1 ... 1.70
O=S(=O)(Nc1cncc(-c2ccc3ncc(-c4ncccn4)n3c2)c1)c1ccccc1 ... 0.88
Nc1ccc(-c2cccc3c(=O)cc(N4CCOCC4)oc23)cc1 [PI 828, reference compound] ... 3.28
COc1ncc(-c2cnc3ccc(-c4cncc(NS(=O)(=O)c5ccccc5)c4)cn23)cn1 ... 1.17

Moving on to another compound below.
So, CN(C)c1ncc(-c2cnc3ccc(-c4cncc(NS(=O)(=O)c5ccccc5)c4)cn23)cn1 ? Its log10 IC50 was 1.27

---

# target-system: UniProt P42336
# assay-protocol: PI3K kinase assay (ADP-Glo), p110alpha
# Assay type: biochemical
# measurement-context: Exp. 1; final ATP 25 μM; read-out: IC50 p110alpha Exp. 1
measurement-kind: IC50 (nM)
Field format: number, assumed nM, no unit text.

Consider the worked cases shown below.
COc1ncc(-c2cnc3ccc(-c4cncc(NS(=O)(=O)c5ccccc5)c4)cn23)cn1 ... 11.7
O=S(=O)(Nc1cncc(-c2ccc3ncc(-c4ncccn4)n3c2)c1)c1ccccc1 ... 8.9
CN(C)c1ncc(-c2cnc3ccc(-c4cncc(NS(=O)(=O)c5ccccc5)c4)cn23)cn1 ... 20.9
Nc1ccc(-c2cccc3c(=O)cc(N4CCOCC4)oc23)cc1 [PI 828, reference compound] ... 351

Now examine the next entry.
Measured IC50 of O=S(=O)(Nc1cncc(-c2ccc3ncc(-c4cnc5ccnn5c4)n3c2)c1)c1ccccc1 : 51

---

# target-system: p120gamma (Homo sapiens)
# assay-protocol: PI3K kinase assay (ADP-Glo), p120gamma
# Type: biochemical
# measurement-context: Exp. 2; final ATP 25 μM; read-out: IC50 p120gamma Exp. 2
measurement-kind: pIC50
Keep it numeric: pIC50 is minus log10 of the concentration in mol/L.

COc1ncc(-c2cnc3ccc(-c4cncc(NS(=O)(=O)c5ccccc5)c4)cn23)cn1 [TK2-67p3-36 (6b)] ... 7.56

Lab book: pIC50 of O=S(=O)(Nc1cncc(-c2ccc3ncc(-c4cnc5ccnn5c4)n3c2)c1)c1ccccc1 [TK2-130p3-37 (6c)] noted as 7.51

---

# target-system: p110alpha (Homo sapiens, UniProt P42336)
# Sequence (P42336 whole entry): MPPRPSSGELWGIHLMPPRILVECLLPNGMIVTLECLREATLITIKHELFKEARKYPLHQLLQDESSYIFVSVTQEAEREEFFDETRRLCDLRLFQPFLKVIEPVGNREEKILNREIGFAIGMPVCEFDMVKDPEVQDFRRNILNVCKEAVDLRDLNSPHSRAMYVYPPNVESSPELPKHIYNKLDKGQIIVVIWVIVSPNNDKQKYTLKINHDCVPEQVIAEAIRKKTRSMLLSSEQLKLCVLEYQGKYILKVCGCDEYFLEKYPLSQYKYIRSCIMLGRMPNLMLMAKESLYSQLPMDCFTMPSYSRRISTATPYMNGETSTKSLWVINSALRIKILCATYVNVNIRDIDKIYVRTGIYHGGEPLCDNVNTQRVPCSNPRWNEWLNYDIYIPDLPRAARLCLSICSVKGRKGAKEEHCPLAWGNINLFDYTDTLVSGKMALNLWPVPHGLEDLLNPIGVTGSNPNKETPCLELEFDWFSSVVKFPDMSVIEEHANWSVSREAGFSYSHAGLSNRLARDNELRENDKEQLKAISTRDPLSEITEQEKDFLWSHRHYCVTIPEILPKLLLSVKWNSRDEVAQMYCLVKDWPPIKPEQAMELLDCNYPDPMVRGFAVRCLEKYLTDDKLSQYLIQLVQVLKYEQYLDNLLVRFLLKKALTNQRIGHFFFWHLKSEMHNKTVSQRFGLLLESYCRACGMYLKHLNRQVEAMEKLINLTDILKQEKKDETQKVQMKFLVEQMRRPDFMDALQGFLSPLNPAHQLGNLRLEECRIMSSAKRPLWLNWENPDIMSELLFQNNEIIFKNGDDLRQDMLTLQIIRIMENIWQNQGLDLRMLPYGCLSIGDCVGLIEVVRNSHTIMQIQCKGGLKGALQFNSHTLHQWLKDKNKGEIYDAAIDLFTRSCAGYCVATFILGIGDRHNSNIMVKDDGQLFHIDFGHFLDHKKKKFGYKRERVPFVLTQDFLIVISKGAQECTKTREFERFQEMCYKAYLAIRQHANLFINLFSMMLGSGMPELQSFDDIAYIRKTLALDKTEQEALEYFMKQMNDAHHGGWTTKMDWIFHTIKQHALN
# Sequence (P27986 whole entry partner): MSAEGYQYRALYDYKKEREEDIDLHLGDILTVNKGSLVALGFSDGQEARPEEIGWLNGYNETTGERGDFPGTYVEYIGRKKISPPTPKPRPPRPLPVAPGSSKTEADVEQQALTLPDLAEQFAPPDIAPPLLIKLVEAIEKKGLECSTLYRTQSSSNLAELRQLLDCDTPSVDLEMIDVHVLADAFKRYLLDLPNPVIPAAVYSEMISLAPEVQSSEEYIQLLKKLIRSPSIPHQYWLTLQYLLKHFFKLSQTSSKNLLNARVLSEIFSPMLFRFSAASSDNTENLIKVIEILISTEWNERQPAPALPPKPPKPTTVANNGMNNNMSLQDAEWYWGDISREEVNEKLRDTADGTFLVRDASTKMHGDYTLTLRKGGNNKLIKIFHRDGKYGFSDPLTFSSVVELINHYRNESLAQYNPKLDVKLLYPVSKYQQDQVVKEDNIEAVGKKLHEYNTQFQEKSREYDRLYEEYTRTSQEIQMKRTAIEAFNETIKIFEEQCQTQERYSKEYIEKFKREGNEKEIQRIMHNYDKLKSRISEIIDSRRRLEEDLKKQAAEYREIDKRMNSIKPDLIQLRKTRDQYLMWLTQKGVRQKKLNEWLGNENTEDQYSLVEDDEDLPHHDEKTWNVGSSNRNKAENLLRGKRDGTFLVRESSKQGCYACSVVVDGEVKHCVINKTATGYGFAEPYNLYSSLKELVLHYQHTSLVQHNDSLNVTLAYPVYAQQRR
# assay-protocol: PI3K kinase assay (ADP-Glo), p110alpha
# Type: biochemical
# measurement-context: Exp. 2; final ATP 25 μM; read-out: IC50 p110alpha Exp. 2
IC50 overview
Could you give me the number in nM? Just the number is fine.

Consider the reported IC50 for these molecules:
COc1ncc(-c2cnc3ccc(-c4cncc(NS(=O)(=O)c5ccccc5)c4)cn23)cn1 [TK2-67p3-36 (6b)] ... 12.7
Nc1ccc(-c2cccc3c(=O)cc(N4CCOCC4)oc23)cc1 [PI 828, reference compound] ... 349
CN(C)c1ncc(-c2cnc3ccc(-c4cncc(NS(=O)(=O)c5ccccc5)c4)cn23)cn1 [TK2-71pZD2-86 (6a)] ... 33.7
O=S(=O)(Nc1cncc(-c2ccc3ncc(-c4cnc5ccnn5c4)n3c2)c1)c1ccccc1 [TK2-130p3-37 (6c)] ... 61.3

As a next step, examine the molecule that follows.
So for O=S(=O)(Nc1cncc(-c2ccc3ncc(-c4ncccn4)n3c2)c1)c1ccccc1 [TK2-94p3-47 (6d)] , the logged IC50 turned out to be 11.5

---

# target-system: UniProtKB O00329
# assay-protocol: PI3K kinase assay (ADP-Glo), p110delta
# Assay type: biochemical
# measurement-context: Exp. 1; final ATP 25 μM; read-out: IC50 p110delta Exp. 1
Entries and their measured IC50 follow.
Reply numerically in µM, unit not repeated.

COc1ncc(-c2cnc3ccc(-c4cncc(NS(=O)(=O)c5ccccc5)c4)cn23)cn1 ... 0.0335
CN(C)c1ncc(-c2cnc3ccc(-c4cncc(NS(=O)(=O)c5ccccc5)c4)cn23)cn1 ... 0.0335
O=S(=O)(Nc1cncc(-c2ccc3ncc(-c4cnc5ccnn5c4)n3c2)c1)c1ccccc1 ... 0.0341
O=S(=O)(Nc1cncc(-c2ccc3ncc(-c4ncccn4)n3c2)c1)c1ccccc1 ... 0.0108

Data point: Nc1ccc(-c2cccc3c(=O)cc(N4CCOCC4)oc23)cc1 [PI 828, reference compound] ; IC50 = 0.308

---

# target-system: p110delta (Homo sapiens)
# Sequence (O00329 whole entry, one chain of several): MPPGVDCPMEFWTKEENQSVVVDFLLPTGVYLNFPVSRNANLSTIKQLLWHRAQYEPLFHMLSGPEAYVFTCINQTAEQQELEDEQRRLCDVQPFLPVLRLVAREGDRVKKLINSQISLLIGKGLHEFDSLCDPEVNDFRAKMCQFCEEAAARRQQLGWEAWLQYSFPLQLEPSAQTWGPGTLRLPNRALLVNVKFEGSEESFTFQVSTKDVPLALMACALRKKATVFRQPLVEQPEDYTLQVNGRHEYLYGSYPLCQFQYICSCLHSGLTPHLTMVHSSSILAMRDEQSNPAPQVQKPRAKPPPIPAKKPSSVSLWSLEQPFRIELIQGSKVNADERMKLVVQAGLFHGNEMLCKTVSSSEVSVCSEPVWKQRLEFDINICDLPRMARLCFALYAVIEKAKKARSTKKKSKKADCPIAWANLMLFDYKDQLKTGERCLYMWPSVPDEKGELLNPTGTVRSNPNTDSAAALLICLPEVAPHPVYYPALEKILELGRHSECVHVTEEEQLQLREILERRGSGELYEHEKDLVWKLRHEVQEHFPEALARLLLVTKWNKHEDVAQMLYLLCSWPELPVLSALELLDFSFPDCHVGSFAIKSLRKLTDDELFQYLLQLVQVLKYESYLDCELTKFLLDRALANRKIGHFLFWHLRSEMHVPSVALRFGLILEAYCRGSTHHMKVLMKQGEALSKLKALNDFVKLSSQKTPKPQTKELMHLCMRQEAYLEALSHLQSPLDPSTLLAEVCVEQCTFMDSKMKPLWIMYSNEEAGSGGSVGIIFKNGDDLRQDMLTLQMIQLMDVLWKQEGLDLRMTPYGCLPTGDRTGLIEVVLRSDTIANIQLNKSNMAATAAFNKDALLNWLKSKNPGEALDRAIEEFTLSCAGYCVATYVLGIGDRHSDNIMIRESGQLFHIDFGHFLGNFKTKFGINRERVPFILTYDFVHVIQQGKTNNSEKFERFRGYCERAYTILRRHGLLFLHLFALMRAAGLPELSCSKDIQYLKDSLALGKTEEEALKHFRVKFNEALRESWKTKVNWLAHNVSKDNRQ
# assay-protocol: PI3K kinase assay (ADP-Glo), p110delta
# Assay type: biochemical
# measurement-context: Exp. 2; final ATP 25 μM; read-out: IC50 p110delta Exp. 2
Rule: IC50 below 30 nM gives yes (1), anything at or above gives no (0).

Nc1ccc(-c2cccc3c(=O)cc(N4CCOCC4)oc23)cc1 [PI 828, reference compound] ... no (0)
O=S(=O)(Nc1cncc(-c2ccc3ncc(-c4cnc5ccnn5c4)n3c2)c1)c1ccccc1 ... no (0)
O=S(=O)(Nc1cncc(-c2ccc3ncc(-c4ncccn4)n3c2)c1)c1ccccc1 ... yes (1)
COc1ncc(-c2cnc3ccc(-c4cncc(NS(=O)(=O)c5ccccc5)c4)cn23)cn1 ... yes (1)

Let's switch to this compound now.
Prompt: Is 30 nM strictly greater than the compound's reported IC50? compound: CN(C)c1ncc(-c2cnc3ccc(-c4cncc(NS(=O)(=O)c5ccccc5)c4)cn23)cn1
Response: no (0)

---

# target-system: p120gamma (Homo sapiens, UniProt P48736)
# assay-protocol: PI3K kinase assay (ADP-Glo), p120gamma
# Type: biochemical
# measurement-context: Exp. 2; final ATP 25 μM; read-out: IC50 p120gamma Exp. 2
Form field: IC50 (one value per entry).
Only the number, expressed in nM, is required.

Worked examples, 2 compounds total:
O=S(=O)(Nc1cncc(-c2ccc3ncc(-c4ncccn4)n3c2)c1)c1ccccc1 ... 8.5
Nc1ccc(-c2cccc3c(=O)cc(N4CCOCC4)oc23)cc1 [PI 828, reference compound] ... 2140

We next turn to a different compound, shown below.
# lookup: CN(C)c1ncc(-c2cnc3ccc(-c4cncc(NS(=O)(=O)c5ccccc5)c4)cn23)cn1 on p120gamma (Homo sapiens, UniProt P48736), IC50 = 34.2
